Reference source for all entries: PubChem BioAssay AID2060903

- Tested on: 377384-186-R-J1-PDC complex spheroid viability
- Test: Anticancer human tumor 377384-186-R-J1-PDC patient-derived pancreatic carcinoma cell line growth inhibition [RAS]
- Measurement setup: second compound 0.00316 µM; first compound 0.00316 µM; active compounds read low
- Excerpt: RAS pathway inhibitors in Combinations in Complex Spheroids A high-throughput screen of multi-cell type tumor spheroids was designed to identify active combinations of RAS pathway inhibitors and targeted small molecules. Complex spheroids include a stromal component modeled by human endothelial cells (HUVEC) and fibroblasts modeled by human mesenchymal stem cells (MSCs). […] Compounds. […] If the clinical Cmax for an agent had not been determined, the highest concentration tested was 10 microM. […]
hey, just use MET if measured viability, T/C is less than 80%, otherwise NOT MET

[
  {
    "Compound": "CC(C)n1nc(-c2ccc3oc(N)nc3c2)c2c(N)ncnc21 + C=CC(=O)N1CCN(c2nc(OCC3CCCN3C)nc3c(F)c(-c4nc(N)cc(C)c4C(F)(F)F)c(Cl)cc23)C(C)C1",
    "Target": "377384-186-R-J1-PDC complex spheroid viability",
    "Category label": "MET"
  },
  {
    "Compound": "C=CC(=O)Nc1cc(Nc2nccc(-c3cn(C)c4ccccc34)n2)c(OC)cc1N(C)CCN(C)C + C=CC(=O)N1CCN(c2nc(OCC3CCCN3C)nc3c(F)c(-c4nc(N)cc(C)c4C(F)(F)F)c(Cl)cc23)C(C)C1",
    "Target": "377384-186-R-J1-PDC complex spheroid viability",
    "Category label": "NOT MET"
  },
  {
    "Compound": "CCN1CCN(Cc2ccc(Nc3ncc(F)c(-c4cc(F)c5nc(C)n(C(C)C)c5c4)n3)nc2)CC1 + C=CC(=O)N1CCN(c2nc(OCC3CCCN3C)nc3c(F)c(-c4nc(N)cc(C)c4C(F)(F)F)c(Cl)cc23)C(C)C1",
    "Target": "377384-186-R-J1-PDC complex spheroid viability",
    "Category label": "NOT MET"
  },
  {
    "Compound": "Nc1ccn(C2OC(CO)C(O)C2(F)F)c(=O)n1 (stereo not given) + C=CC(=O)N1CCN(c2nc(OCC3CCCN3C)nc3c(F)c(-c4nc(N)cc(C)c4C(F)(F)F)c(Cl)cc23)C(C)C1",
    "Target": "377384-186-R-J1-PDC complex spheroid viability",
    "Category label": "MET"
  }
]

---

- Tested on: 377384-186-R-J1-PDC complex spheroid viability
- Test: Anticancer human tumor 377384-186-R-J1-PDC cell line growth inhibition [RAS];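 note: spheroids exposed to compounds for seven days before readout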
- Measurement setup: second compound 0.0949 µM; first compound 10 µM; active compounds read low

[
  {
    "Compound": "C[C@@H](NC(=O)c1ncnc(N)c1Cl)c1ncc(C(=O)Nc2cc(C(F)(F)F)c(Cl)cn2)s1 + CCn1c(-c2cc(N3CCN(C)CC3)cnc2C(C)OC)c2c3cc(ccc31)-c1csc(n1)CC(NC(=O)C1CC1C)C(=O)N1CCCC(N1)C(=O)OCC(C)(C)C2",
    "viability, T/C": "1.87%"
  },
  {
    "Compound": "CCC(CC)c1cc(NC2CCC(N)C2)n2nccc2n1 (configuration not stated) + CCn1c(-c2cc(N3CCN(C)CC3)cnc2C(C)OC)c2c3cc(ccc31)-c1csc(n1)CC(NC(=O)C1CC1C)C(=O)N1CCCC(N1)C(=O)OCC(C)(C)C2",
    "viability, T/C": "2.4%"
  }
]

---

- Tested on: 377384-186-R-J1-PDC complex spheroid viability
- Test: Anticancer human tumor 377384-186-R-J1-PDC cell line growth inhibition [RAS];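 note: spheroids exposed to compounds for seven days before readout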
- Measurement setup: second compound 0.316 µM; first compound 1 µM; active compounds read low

[
  {
    "Compound": "Cc1nc(N2CCC3(CC2)COC(C)C3N)c(CO)nc1Sc1ccnc(N)c1Cl (stereo not given) + C=CC(=O)N1CCN(c2nc(OCC3CCCN3C)nc3c(F)c(-c4nc(N)cc(C)c4C(F)(F)F)c(Cl)cc23)C(C)C1",
    "viability, T/C [%]": 79.3
  },
  {
    "Compound": "Cc1nc(N2CCC3(CC2)COC(C)C3N)c(CO)nc1Sc1ccnc(N)c1Cl (stereo not given) + C#Cc1c(F)ccc2cc(O)cc(-c3ncc4c(N5CC6CCC(C5)N6)nc(OCC56CCCN5CC(F)C6)nc4c3F)c12",
    "viability, T/C [%]": 0.98
  },
  {
    "Compound": "CC(Nc1ccc2c(c1)OCCn1cc(N3C(=O)OCC3C(F)F)nc1-2)C(N)=O (stereo not given) + C=CC(=O)N1CCN(c2nc(OCC3CCCN3C)nc3c(F)c(-c4nc(N)cc(C)c4C(F)(F)F)c(Cl)cc23)C(C)C1",
    "viability, T/C [%]": 44.8
  },
  {
    "Compound": "O=C(c1ccc(F)c(F)c1Nc1ccc(I)cc1F)N1CC(O)([C@@H]2CCCCN2)C1 + C#Cc1c(F)ccc2cc(O)cc(-c3ncc4c(N5CC6CCC(C5)N6)nc(OCC56CCCN5CC(F)C6)nc4c3F)c12",
    "viability, T/C [%]": 0.22
  },
  {
    "Compound": "C[C@@H](NC(=O)c1ncnc(N)c1Cl)c1ncc(C(=O)Nc2cc(C(F)(F)F)c(Cl)cn2)s1 + C=CC(=O)N1CCN(c2nc(OCC3CCCN3C)nc3c(F)c(-c4nc(N)cc(C)c4C(F)(F)F)c(Cl)cc23)C(C)C1",
    "viability, T/C [%]": 115
  }
]

---

- System: 377384-186-R-J1-PDC complex spheroid viability
- Test: Anticancer human tumor 377384-186-R-J1-PDC cell line growth inhibition [RAS];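 note: spheroids exposed to compounds for seven days before readout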
- Measurement setup: second compound 0.3 µM; first compound 0.316 µM; active compounds read low

[
  {
    "Molecule": "C=CC(=O)N1CCN(c2nc(OCC3CCCN3C)nc3c(F)c(-c4nc(N)cc(C)c4C(F)(F)F)c(Cl)cc23)C(C)C1 (stereo not given) + CCn1c(-c2cccnc2C(C)OC)c2c3cc(ccc31)N1CCOC(CC(NC(=O)C(C(C)C)N(C)C(=O)C3(F)CCN(C(=O)C#CC(C)(C)N(C)C)CC3)C(=O)N3CCCC(N3)C(=O)OCC(C)(C)C2)C1",
    "viability, T/C (%)": 96
  },
  {
    "Molecule": "C=CC(=O)N1CCN(c2nc(OCC3CCCN3C)nc3c(F)c(-c4nc(N)cc(C)c4C(F)(F)F)c(Cl)cc23)C(C)C1 (stereo not given) + CCn1c(-c2cc(N3CCN(C)CC3)cnc2C(C)OC)c2c3cc(ccc31)-c1csc(n1)CC(NC(=O)C1CC1C)C(=O)N1CCCC(N1)C(=O)OCC(C)(C)C2",
    "viability, T/C (%)": 1.71
  },
  {
    "Molecule": "NC1c2ccccc2OC12CCN(c1cnc3c(N4CCCc5ncccc54)n[nH]c3n1)CC2 (stereo not given) + CCn1c(-c2cc(N3CCN(C)CC3)cnc2C(C)OC)c2c3cc(ccc31)-c1csc(n1)CC(NC(=O)C1CC1C)C(=O)N1CCCC(N1)C(=O)OCC(C)(C)C2",
    "viability, T/C (%)": 0.5
  },
  {
    "Molecule": "Cc1nc(N2CCC3(CC2)COC(C)C3N)c(CO)nc1Sc1ccnc(N)c1Cl (stereo not given) + CCn1c(-c2cccnc2C(C)OC)c2c3cc(ccc31)N1CCOC(CC(NC(=O)C(C(C)C)N(C)C(=O)C3(F)CCN(C(=O)C#CC(C)(C)N(C)C)CC3)C(=O)N3CCCC(N3)C(=O)OCC(C)(C)C2)C1",
    "viability, T/C (%)": 71
  },
  {
    "Molecule": "O=C(c1ccc(F)c(F)c1Nc1ccc(I)cc1F)N1CC(O)([C@@H]2CCCCN2)C1 + CCn1c(-c2cc(N3CCN(C)CC3)cnc2C(C)OC)c2c3cc(ccc31)-c1csc(n1)CC(NC(=O)C1CC1C)C(=O)N1CCCC(N1)C(=O)OCC(C)(C)C2",
    "viability, T/C (%)": 0.28
  },
  {
    "Molecule": "CCN1CCN(Cc2ccc(Nc3ncc(F)c(-c4cc(F)c5nc(C)n(C(C)C)c5c4)n3)nc2)CC1 + CCn1c(-c2cc(N3CCN(C)CC3)cnc2C(C)OC)c2c3cc(ccc31)-c1csc(n1)CC(NC(=O)C1CC1C)C(=O)N1CCCC(N1)C(=O)OCC(C)(C)C2",
    "viability, T/C (%)": 2.27
  },
  {
    "Molecule": "CC(C)NCC(C(=O)N1CCN(c2ncnc3c2C(C)CC3O)CC1)c1ccc(Cl)cc1 (stereo not given) + CCn1c(-c2cccnc2C(C)OC)c2c3cc(ccc31)N1CCOC(CC(NC(=O)C(C(C)C)N(C)C(=O)C3(F)CCN(C(=O)C#CC(C)(C)N(C)C)CC3)C(=O)N3CCCC(N3)C(=O)OCC(C)(C)C2)C1",
    "viability, T/C (%)": 67.2
  },
  {
    "Molecule": "CC(=O)OC12COC1CC(O)C1(C)C(=O)C(O)C3=C(C)C(OC(=O)C(O)C(NC(=O)OC(C)(C)C)c4ccccc4)CC(O)(C(OC(=O)c4ccccc4)C21)C3(C)C (stereo not given) + CCn1c(-c2cccnc2C(C)OC)c2c3cc(ccc31)N1CCOC(CC(NC(=O)C(C(C)C)N(C)C(=O)C3(F)CCN(C(=O)C#CC(C)(C)N(C)C)CC3)C(=O)N3CCCC(N3)C(=O)OCC(C)(C)C2)C1",
    "viability, T/C (%)": 9.95
  },
  {
    "Molecule": "CCC(CC)c1cc(NC2CCC(N)C2)n2nccc2n1 (stereo not given) + CCn1c(-c2cccnc2C(C)OC)c2c3cc(ccc31)N1CCOC(CC(NC(=O)C(C(C)C)N(C)C(=O)C3(F)CCN(C(=O)C#CC(C)(C)N(C)C)CC3)C(=O)N3CCCC(N3)C(=O)OCC(C)(C)C2)C1",
    "viability, T/C (%)": 86.3
  },
  {
    "Molecule": "CC(C)NCC(C(=O)N1CCN(c2ncnc3c2C(C)CC3O)CC1)c1ccc(Cl)cc1 (stereo not given) + CCn1c(-c2cc(N3CCN(C)CC3)cnc2C(C)OC)c2c3cc(ccc31)-c1csc(n1)CC(NC(=O)C1CC1C)C(=O)N1CCCC(N1)C(=O)OCC(C)(C)C2",
    "viability, T/C (%)": 1.61
  },
  {
    "Molecule": "O=C(c1ccc(F)c(F)c1Nc1ccc(I)cc1F)N1CC(O)([C@@H]2CCCCN2)C1 + CCn1c(-c2cccnc2C(C)OC)c2c3cc(ccc31)N1CCOC(CC(NC(=O)C(C(C)C)N(C)C(=O)C3(F)CCN(C(=O)C#CC(C)(C)N(C)C)CC3)C(=O)N3CCCC(N3)C(=O)OCC(C)(C)C2)C1",
    "viability, T/C (%)": 0.96
  },
  {
    "Molecule": "Cc1nc(N2CCC3(CC2)COC(C)C3N)c(CO)nc1Sc1ccnc(N)c1Cl (stereo not given) + CCn1c(-c2cc(N3CCN(C)CC3)cnc2C(C)OC)c2c3cc(ccc31)-c1csc(n1)CC(NC(=O)C1CC1C)C(=O)N1CCCC(N1)C(=O)OCC(C)(C)C2",
    "viability, T/C (%)": 1.39
  },
  {
    "Molecule": "CC(Nc1ccc2c(c1)OCCn1cc(N3C(=O)OCC3C(F)F)nc1-2)C(N)=O (stereo not given) + CCn1c(-c2cc(N3CCN(C)CC3)cnc2C(C)OC)c2c3cc(ccc31)-c1csc(n1)CC(NC(=O)C1CC1C)C(=O)N1CCCC(N1)C(=O)OCC(C)(C)C2",
    "viability, T/C (%)": 0.4
  },
  {
    "Molecule": "C=CC(=O)Nc1cc(Nc2nccc(-c3cn(C)c4ccccc34)n2)c(OC)cc1N(C)CCN(C)C + CCn1c(-c2cccnc2C(C)OC)c2c3cc(ccc31)N1CCOC(CC(NC(=O)C(C(C)C)N(C)C(=O)C3(F)CCN(C(=O)C#CC(C)(C)N(C)C)CC3)C(=O)N3CCCC(N3)C(=O)OCC(C)(C)C2)C1",
    "viability, T/C (%)": 64.3
  },
  {
    "Molecule": "CC1(O)CCCC1n1c(=O)c(C(F)F)cc2cnc(NC3CCN(S(C)(=O)=O)CC3)nc21 (stereo not given) + CCn1c(-c2cc(N3CCN(C)CC3)cnc2C(C)OC)c2c3cc(ccc31)-c1csc(n1)CC(NC(=O)C1CC1C)C(=O)N1CCCC(N1)C(=O)OCC(C)(C)C2",
    "viability, T/C (%)": 2.49
  }
]
